# TARGET: T1, IL-2 receptor βγ complex on pan T cells (human, UniProt P14784 27-551; P31785 23-369)
# T1 sequence (looked up) 1: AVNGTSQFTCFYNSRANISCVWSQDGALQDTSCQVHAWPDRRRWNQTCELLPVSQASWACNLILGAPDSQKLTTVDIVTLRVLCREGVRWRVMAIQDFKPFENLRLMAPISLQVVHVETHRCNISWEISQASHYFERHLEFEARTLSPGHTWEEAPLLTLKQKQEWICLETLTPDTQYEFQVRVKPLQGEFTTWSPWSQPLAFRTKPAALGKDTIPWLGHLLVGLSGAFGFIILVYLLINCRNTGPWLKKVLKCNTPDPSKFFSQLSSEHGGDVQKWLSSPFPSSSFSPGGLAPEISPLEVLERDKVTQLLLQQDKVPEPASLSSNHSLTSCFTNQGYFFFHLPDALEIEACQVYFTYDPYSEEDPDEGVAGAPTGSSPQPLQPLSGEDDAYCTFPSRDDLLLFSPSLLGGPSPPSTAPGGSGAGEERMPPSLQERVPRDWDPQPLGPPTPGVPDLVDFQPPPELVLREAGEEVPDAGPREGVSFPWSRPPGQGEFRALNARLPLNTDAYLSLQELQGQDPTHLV
# T1 sequence (looked up) 2: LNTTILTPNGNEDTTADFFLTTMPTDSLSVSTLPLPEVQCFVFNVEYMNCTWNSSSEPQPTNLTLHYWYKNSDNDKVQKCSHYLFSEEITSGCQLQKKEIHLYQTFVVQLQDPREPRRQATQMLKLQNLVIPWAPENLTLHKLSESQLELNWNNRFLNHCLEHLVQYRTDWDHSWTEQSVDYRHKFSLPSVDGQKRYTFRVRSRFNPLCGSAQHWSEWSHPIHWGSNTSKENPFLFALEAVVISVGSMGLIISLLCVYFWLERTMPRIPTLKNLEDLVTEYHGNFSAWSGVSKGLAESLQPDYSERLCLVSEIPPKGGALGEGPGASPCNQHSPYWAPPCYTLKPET
# PROTOCOL_SUMMARY: cell-based or functional assay
[ ]: non-standard residue; d: D form. Ygp = O-(8x polyethylene glycol-amino)-tyrosine; Yn3 = O-(9x polyethylene glycol-azido)-tyrosine; hSer = N[C@@H](CCO)C(=O)O; Nle = CCCC[C@H](N)C(=O)O
Examples of binders with documented Average EC50, pSTAT5 assay in pan T cells, MMP2 cleaved molecule follow.
Field: numeric (nM). Do not append units.

Before answering, review these 3 worked examples.
# BINDER, DATA_VALUE
data = [
    ("CMP-169, MMP2 cleaved (ligand, ends and bridges not checked; also: cleavable moiety between Lys9 and Glu23 side chains cut by MMP2, macrocycle opened, cut site not given here) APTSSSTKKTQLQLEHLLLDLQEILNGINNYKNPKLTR[Nle]L[hSer][Yn3]KF[Ygp][Nle]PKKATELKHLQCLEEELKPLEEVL[hSer]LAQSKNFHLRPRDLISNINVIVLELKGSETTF[hSer]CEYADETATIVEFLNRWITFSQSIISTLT", 5.39),
    ("CMP-163, MMP2 cleaved (ligand, not fully specified (residue 23, N-terminus); ends and bridges not checked; also: macrocycle (Lys23 side chain - cleavable peptide - PEG4 - glutaryl - Ala1) cut by MMP2, cut site not given here) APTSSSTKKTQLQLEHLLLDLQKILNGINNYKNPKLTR[Nle]L[hSer][Yn3]KF[Ygp][Nle]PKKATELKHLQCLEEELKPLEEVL[hSer]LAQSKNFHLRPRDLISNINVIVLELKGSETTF[hSer]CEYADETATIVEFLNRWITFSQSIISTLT", 0.76),
    ("CMP-300, MMP2 cleaved (ligand, ends and bridges not checked; also: cleavable moiety between Glu23 side chain and N-terminus cut by MMP2, macrocycle opened, cut site not given here) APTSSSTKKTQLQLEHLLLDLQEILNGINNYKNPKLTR[Nle]L[hSer][Yn3]KF[Ygp][Nle]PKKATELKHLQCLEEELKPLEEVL[hSer]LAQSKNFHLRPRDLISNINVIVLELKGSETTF[hSer]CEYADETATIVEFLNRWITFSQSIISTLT", 1.73),
]

Next item in the queue.
Req: Can you share its Average EC50, pSTAT5 assay in pan T cells, MMP2 cleaved molecule? I mean this binder: CMP-305, MMP2 cleaved (ligand, ends and bridges not checked; also: cleavable moiety between Glu15 and Lys23 side chains cut by MMP2, macrocycle opened, cut site not given here) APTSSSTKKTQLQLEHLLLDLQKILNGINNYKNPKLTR[Nle]L[hSer][Yn3]KF[Ygp][Nle]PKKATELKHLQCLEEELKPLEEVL[hSer]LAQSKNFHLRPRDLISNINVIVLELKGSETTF[hSer]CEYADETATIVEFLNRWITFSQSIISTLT
Resp: 3.26
